List of melting point values.

Sample answers from the record:
O=C(O)c1sccc1S(=O)(=O)Nc1cccc2cn[nH]c12 : 236 to 238 °C
COc1ccc(Cl)c(N=C=O)c1 : 38 to 40 °C
Cc1nc2ccccn2c1C(=O)NN : 188 to 190 °C
Cc1ccc(NS(=O)(=O)c2ccc(Cl)c([N+](=O)[O-])c2)c(C)c1 : 99 to 101 °C
O=C(c1ccc(CCl)cc1)N1CCCC1 : 198 to 200 °C
CC(NC(=O)CC(F)(F)F)C(=O)O (stereo not drawn) : 105 to 107 °C

Incoming: Requested read-out: melting point. Entry: NC(=O)C1CCCN1C(=O)NC(=O)CCl (stereo not drawn)
Outgoing: 126 to 128 °C

Incoming: Query (molecule): `O=C(CCl)NCc1ccco1` ; field requested: melting point
Outgoing: 81 to 83 °C

Incoming: Recorded melting point for `COc1cc(Cl)ccc1S(N)(=O)=O` , please?
Outgoing: 169 to 171 °C

Incoming: So what's the measured melting point for this one? NC(=S)C1CCCO1 (stereo not drawn)
Outgoing: 80 to 82 °C

Incoming: Field request: melting point | item: CCCCC(NC(=O)NCC)C(=O)O (stereo not drawn)
Outgoing: 96 to 98 °C

Incoming: Given the entry O=C(Nc1ccc(F)cc1)C1CCc2ccccc2N1 (stereo not drawn) , report its measured melting point.
Outgoing: 115 to 117 °C

Incoming: I'd like to know its melting point. The molecule in question is `O=C(O)c1ccc(Cn2ccccc2=O)o1`
Outgoing: 199 to 201 °C

Incoming: Reported melting point, molecule CC(NC(=O)c1ccc(Br)s1)C(=O)O (stereo not drawn) : ____
Outgoing: 135 to 137 °C

Incoming: For `Cn1ccnc1SCC(=O)Nc1ccc(C(=O)O)cc1` , what is its reported melting point?
Outgoing: 171 to 173 °C

Incoming: Consider the molecule `Cc1ccn2c(N)c(-c3ccc(F)cc3)nc2c1` and give its measured melting point.
Outgoing: 188 to 190 °C

Incoming: Which melting point value belongs to CC(O)(C(=O)O)c1cccc(F)c1 (stereo not drawn) ?
Outgoing: 99 to 101 °C

Incoming: Given the molecule `O=C(O)CCCOc1cccnc1` , what is its reported melting point?
Outgoing: 125 to 127 °C

Incoming: Sample `O=C(O)c1ccc(S(=O)(=O)Cl)c(Br)c1` — what was its melting point?
Outgoing: 206 to 208 °C

Incoming: Would you kindly share the measured melting point for `COc1ccccc1CN1C(=O)C=CC1=O` ?
Outgoing: 93 to 95 °C

Incoming: # lookup: melting point of `Cc1c(C(=O)O)cc(S(N)(=O)=O)cc1[N+](=O)[O-]`
Outgoing: 172 to 174 °C

Incoming: What melting point value was documented for this molecule, `CCc1c(C(=O)O)[nH]c(C)c1C(C)=O` ?
Outgoing: 202 to 204 °C

Incoming: Recorded melting point for `NCc1noc(-c2cccs2)n1` , please?
Outgoing: 146 to 148 °C

Incoming: Name the recorded melting point for `CCn1cc(C(=O)C(=O)O)cn1` .
Outgoing: 129 to 131 °C

Incoming: Given the molecule `COc1cc(OC)c(NC(=O)OCC(F)(F)F)cc1Cl` , what is its reported melting point?
Outgoing: 87 to 89 °C

Incoming: I would be grateful if you could share the reported melting point for `Cc1[nH]c(=O)[nH]c(=O)c1CCC(=O)O` .
Outgoing: 306 to 308 °C

Incoming: # input molecule: `Nc1ccc(C(=O)N2CCCC2)c(F)c1` ; wanted: its melting point
Outgoing: 139 to 141 °C

Incoming: I would be grateful if you could share the reported melting point for `O=C(O)c1ccc(-c2ccco2)[nH]c1=O` .
Outgoing: 299 to 301 °C

----------
melting point values for the compounds below.

Sample answers from the record:
CC(C)(C)OC(=O)C(C#N)c1nccnc1Cl (stereo not drawn) : 62 to 64 °C
O=C(O)C1CNc2ccccc21 (stereo not drawn) : 178 to 180 °C
CCOc1ccccc1OCC(=O)O : 44 to 46 °C
N#Cc1ccc(N2CCOCC2)nc1 : 123 to 125 °C
CNS(=O)(=O)CC(=O)O : 119 to 121 °C

Please find the next compound below.
Incoming: GET /values?readout=melting point&item= `CCNC(=O)NCc1ccc(N)cc1`
Outgoing: 120 to 122 °C

----------
Measured melting point by item

Examples with their reported melting point follow.
CC(NC(=O)CCl)c1ccc2c(c1)CCCC2 (stereo unspecified) : 134 to 136 °C
Brc1cccc(-c2nnco2)c1 : 74 to 76 °C

# evaluate next
Incoming: # input compound: CCC(C(=O)Nc1cccc(C(N)=S)c1)c1ccccc1 (stereo unspecified) ; wanted: its melting point
Outgoing: 148 to 150 °C

----------
testReadout: melting point

Field: example entries. Status: answers known.
O=C(CCl)NCc1ccccc1CN1CCCC1=O : 125 to 127 °C
Cc1cc(CN)cc(C)c1O : 99 to 101 °C
CCOC(=O)CCc1nnc(-c2ccc(Cl)cc2)o1 : 100 to 102 °C
O=C1NCCOc2ccccc21 : 110 to 112 °C
O=C(CCl)NC(=O)Nc1ccccc1 : 161 to 163 °C

Incoming: Data request, read-out melting point, for `Nc1ccc(Sc2ccncc2)cc1`
Outgoing: 169 to 171 °C

Incoming: Any idea what its melting point is? The compound is `Cc1nc(O)ccc1C(=O)O`
Outgoing: 329 to 331 °C

Incoming: What does the record list as melting point for `O=C(CC1(C(=O)O)CCCC1)N1CCOCC1` ?
Outgoing: 150 to 152 °C

----------
The following compounds are shown together with reported melting point values.

Take a look at these entries with their results.
COc1ccccc1Nc1nc(-c2ccc(C)cc2)cs1 : 143 to 145 °C
CC(=O)NCc1ccc(-c2csc(N)n2)s1 : 221 to 223 °C
N#Cc1cc2ccccc2o1 : 33 to 35 °C
CNc1ncnc2ccsc12 : 179 to 181 °C
Cn1cc(C=O)c(-c2ccc3c(c2)OCCCO3)n1 : 99 to 101 °C
Nc1nc(Cl)ccc1[N+](=O)[O-] : 188 to 193 °C
O=C(O)c1cc([N+](=O)[O-])ccc1SCCO : 163 to 165 °C
NC(=O)c1c(N)sc2c1CCCCC2 : 195 to 199 °C

Incoming: What melting point value was documented for this compound, `Cc1ccc(NC(N)=O)cc1C` ?
Outgoing: 170 to 172 °C

Incoming: What value of melting point has been recorded for this entry: `NC(=S)C1CCCCC1`
Outgoing: 115 to 117 °C

Incoming: For the compound `COC(=O)c1ccc(-c2nn[nH]n2)cc1` , what melting point is on record?
Outgoing: 230 to 232 °C

Incoming: For the compound shown here, `O=C(O)c1ccc(Cl)c(N2CCNC2=O)c1` , give the reported melting point.
Outgoing: 290 to 292 °C

Incoming: Entry `CS(=O)(=O)c1ccc(F)c(S(=O)(=O)Cl)c1` : reported melting point = ?
Outgoing: 122 to 124 °C

Incoming: So what's the measured melting point for this one? `O=C(O)CNC(=O)NCc1ccc(F)cc1`
Outgoing: 169 to 171 °C

Incoming: For the compound shown here, `O=C(O)c1cccnc1Oc1ccc(Br)cc1` , give the reported melting point.
Outgoing: 177 to 179 °C

Incoming: # input compound: `COC(=O)c1cc(S(=O)(=O)Cl)c(C(=O)OC)s1` ; wanted: its melting point
Outgoing: 129 to 131 °C

Incoming: Entry `N#Cc1ccccc1-c1ccc(CBr)cc1` : reported melting point = ?
Outgoing: 127 to 129 °C

Incoming: Report melting point for `Cc1cc(C)n2nc(Br)nc2n1` please.
Outgoing: 185 to 187 °C

Incoming: Fill in the blank: the reported melting point of `O=C(NCc1ccccc1)OCC(F)(F)F` is ____.
Outgoing: 62 to 66 °C

Incoming: Quick check: melting point of `O=C(O)CCCN1C(=O)CCC1=O` ?
Outgoing: 102 to 104 °C

----------
Reported melting point values follow for various compounds

In the examples that follow, each entry is paired with its recorded melting point.
CN(C)c1ccc(C#N)cc1F : 34 to 36 °C
Cn1ccnc1C(=O)c1ccc(N)cc1 : 70 to 72 °C

Incoming: What value of melting point has been recorded for this entry: `Cc1ccc(-c2csc(NCCCC(=O)O)n2)s1`
Outgoing: 110 to 112 °C

Incoming: Fill blank: measured melting point of the compound `O=C(Cl)c1cc(Cl)nc2ccccc12` is ____.
Outgoing: 85 to 87 °C

----------
The entries below come with measured melting point values attached.

Clc1ccc(NCc2cccnc2)c(Cl)c1 : 76 to 78 °C
O=c1c(Oc2ccccc2)coc2cc(O)ccc12 : 197 to 199 °C
COCCOc1ccc(C(N)=S)cc1 : 141 to 143 °C
CCc1nc(COc2ccc(C(=O)OC)cc2)no1 : 44 to 46 °C
Nc1ccc(Cl)cc1C(=O)NCC1CC1 : 152 to 154 °C
C=CCNC(=O)c1nc(C(=O)O)cs1 : 147 to 149 °C
O=Cc1cn2cccc(F)c2n1 : 163 to 165 °C
Cc1nn(CC(=O)OC(C)C)c(C)c1C=O : 104 to 106 °C
Nc1nc(=O)c2ccccc2s1 : 274 to 276 °C
COc1ccc(I)cc1F : 32 to 34 °C

Incoming: What value of melting point has been reported for the following compound? `Cc1cccc(NC(=O)N2CCNCC2)c1`
Outgoing: 109 to 111 °C

Incoming: Fill in the blank: the reported melting point of `Cc1nnc(Cl)c(C#N)c1C` is ____.
Outgoing: 61 to 63 °C

Incoming: I am curious: what melting point value has been reported for `CCC(=O)c1cc(F)cc(Br)c1` ?
Outgoing: 29 to 31 °C

Incoming: Using the record for `O=S1(=O)CCCN1Cc1ccc(Br)cc1` , report its melting point.
Outgoing: 58 to 60 °C
